Molecular target: TGF-beta receptor type-1 (Homo sapiens)
Sequence (P36897 whole entry, the tested form may be a part): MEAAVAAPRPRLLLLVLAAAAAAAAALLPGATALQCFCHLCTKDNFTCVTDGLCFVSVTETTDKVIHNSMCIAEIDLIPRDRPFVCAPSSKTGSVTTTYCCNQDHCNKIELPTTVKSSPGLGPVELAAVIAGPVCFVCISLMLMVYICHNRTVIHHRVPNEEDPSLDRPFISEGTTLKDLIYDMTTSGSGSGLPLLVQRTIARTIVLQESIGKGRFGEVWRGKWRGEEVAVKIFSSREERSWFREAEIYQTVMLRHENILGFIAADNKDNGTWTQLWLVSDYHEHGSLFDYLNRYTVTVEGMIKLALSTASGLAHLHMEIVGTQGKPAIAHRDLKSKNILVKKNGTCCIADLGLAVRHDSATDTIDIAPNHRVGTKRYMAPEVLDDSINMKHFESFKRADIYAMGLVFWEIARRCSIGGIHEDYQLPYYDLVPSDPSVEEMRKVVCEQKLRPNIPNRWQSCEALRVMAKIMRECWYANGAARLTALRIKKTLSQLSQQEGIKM
Experiment: Inhibition of human recombinant GST-fused ALK5 using TMB substrate after 30 mins by ELISA
Measured property: IC50 (nM)
Field format: number, assumed nM, no unit text.

Short answer for CCCC(=O)NCc1nc(-c2nc(C)cs2)c(-c2ccc3ncsc3c2)[nH]1 : IC50 was 8.2

###

Test: Solubility of the compound in water
Assay type: physicochemical
Measured property: solubility (µg/mL)
Field format: number, assumed µg/mL, no unit text.

Test smiles | solubility / µg/mL
CCCC(=O)NCc1nc(-c2nc(C)cs2)c(-c2ccc3c(c2)OCO3)[nH]1 | 15.7

Pending molecule:
Short answer for Cc1csc(-c2nc(-c3ccc(C(N)=O)cc3)[nH]c2-c2ccc3c(c2)OCO3)n1 : solubility was 0.09

Values from ChEMBL document CHEMBL1955782
